biological target: Fibroblast growth factor receptor 1 (Homo sapiens) (UniProt P11362); details: at 1 µM;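 further: values are the mean percent inhibition of FGFR1 across replicate measurements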
Sequence (P11362 22-822 limits assumed): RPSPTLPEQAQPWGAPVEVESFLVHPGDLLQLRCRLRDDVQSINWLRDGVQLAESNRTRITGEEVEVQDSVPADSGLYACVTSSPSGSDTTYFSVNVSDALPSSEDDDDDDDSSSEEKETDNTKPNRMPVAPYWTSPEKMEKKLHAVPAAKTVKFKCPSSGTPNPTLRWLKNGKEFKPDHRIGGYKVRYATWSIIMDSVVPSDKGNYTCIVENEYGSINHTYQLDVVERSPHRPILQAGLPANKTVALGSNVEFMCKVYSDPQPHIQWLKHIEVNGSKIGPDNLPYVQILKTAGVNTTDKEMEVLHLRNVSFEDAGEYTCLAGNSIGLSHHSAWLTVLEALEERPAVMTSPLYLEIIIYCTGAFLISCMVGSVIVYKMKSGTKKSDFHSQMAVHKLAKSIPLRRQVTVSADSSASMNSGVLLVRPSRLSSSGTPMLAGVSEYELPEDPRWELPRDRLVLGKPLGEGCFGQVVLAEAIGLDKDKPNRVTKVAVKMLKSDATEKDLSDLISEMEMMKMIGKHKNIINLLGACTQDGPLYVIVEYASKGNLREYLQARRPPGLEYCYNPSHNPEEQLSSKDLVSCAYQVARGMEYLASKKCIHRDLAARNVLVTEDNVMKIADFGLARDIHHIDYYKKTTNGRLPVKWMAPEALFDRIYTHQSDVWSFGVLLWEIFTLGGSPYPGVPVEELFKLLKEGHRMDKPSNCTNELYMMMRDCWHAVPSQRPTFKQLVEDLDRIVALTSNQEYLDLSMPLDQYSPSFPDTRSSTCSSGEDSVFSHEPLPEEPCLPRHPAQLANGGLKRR
measured.quantity: inhibition (%)

# structure.notation, system.under.test, numeric.readout
measured = [
    ("Nc1nccc(-c2c(-c3ccc(F)cc3)nn3cc(C(F)(F)F)ccc23)n1", "Fibroblast growth factor receptor 1 (Homo sapiens) (UniProt P11362)", -0.05),
    ("COc1ccc2ncnc(Nc3ccc(OCc4ccccc4)cc3)c2c1", "Fibroblast growth factor receptor 1 (Homo sapiens) (UniProt P11362)", -1.53),
    ("CCOc1nccc2c1nc(-c1nonc1N)n2CC", "Fibroblast growth factor receptor 1 (Homo sapiens) (UniProt P11362)", 7.51),
    ("OCc1ccc(-c2nc(-c3ccccn3)c(-c3ccc4c(c3)OCO4)[nH]2)cc1", "Fibroblast growth factor receptor 1 (Homo sapiens) (UniProt P11362)", 5.71),
    ("O=C1Nc2ccccc2/C1=C/Nc1ccc2[nH]c(=O)[nH]c2c1", "Fibroblast growth factor receptor 1 (Homo sapiens) (UniProt P11362)", 16.5),
    ("Nc1ccc(C#Cc2cncnc2Nc2ccc(OCc3cccc(F)c3)c(Cl)c2)cc1", "Fibroblast growth factor receptor 1 (Homo sapiens) (UniProt P11362)", 4.37),
    ("C[C@@H](Oc1cc(-n2cnc3ccc(OCC4CCN(C)CC4)cc32)sc1C(N)=O)c1ccccc1C(F)(F)F", "Fibroblast growth factor receptor 1 (Homo sapiens) (UniProt P11362)", 13),
    ("Cc1ccc(Nc2ccnc(Nc3cccc(C(N)=O)c3)n2)cc1O", "Fibroblast growth factor receptor 1 (Homo sapiens) (UniProt P11362)", 34.8),
    ("COc1ccc(-c2nn3ncccc3c2-c2ccnc(Nc3cccc(C(F)(F)F)c3)n2)cc1", "Fibroblast growth factor receptor 1 (Homo sapiens) (UniProt P11362)", -1.86),
    ("Cc1ccc(NC(=O)CC2CC2)cc1-c1ccc(C(=O)NCC2CC2)cc1", "Fibroblast growth factor receptor 1 (Homo sapiens) (UniProt P11362)", 4.06),
]

###

molecular target: Serine/threonine-protein kinase 3 (Homo sapiens) (UniProt Q13188); settings: at 1 µM;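 further: each value is the mean inhibition of MST2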
Sequence (Q13188 whole entry): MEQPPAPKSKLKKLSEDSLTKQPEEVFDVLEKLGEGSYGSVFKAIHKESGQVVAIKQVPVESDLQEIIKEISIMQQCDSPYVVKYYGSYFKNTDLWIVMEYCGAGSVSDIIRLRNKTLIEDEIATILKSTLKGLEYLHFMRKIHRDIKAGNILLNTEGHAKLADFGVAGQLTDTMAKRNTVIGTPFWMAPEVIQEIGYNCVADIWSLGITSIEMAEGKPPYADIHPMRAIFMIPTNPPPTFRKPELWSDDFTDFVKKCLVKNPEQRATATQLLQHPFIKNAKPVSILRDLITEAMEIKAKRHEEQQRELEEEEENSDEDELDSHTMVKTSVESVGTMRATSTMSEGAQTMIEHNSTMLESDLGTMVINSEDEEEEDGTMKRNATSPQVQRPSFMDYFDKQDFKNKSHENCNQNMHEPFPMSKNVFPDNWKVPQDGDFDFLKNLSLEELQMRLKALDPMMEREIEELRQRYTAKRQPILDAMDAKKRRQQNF
measured.quantity: inhibition (%)

# compound, numeric.readout
data = [
    ("CCCN1CCCC(c2ccc(Nc3nc(Nc4cc(F)ccc4C(N)=O)c4cc[nH]c4n3)c(OC)c2)C1 (configuration not stated)", 10.6),
    ("COc1cccc(-n2ncc3c(N/N=C/c4ccc(S(C)(=O)=O)cc4)ncnc32)c1", 2.91),
    ("Nc1nccc(C#Cc2cncnc2Nc2ccc(OCc3cccc(F)c3)c(Cl)c2)n1", 7.32),
    ("CCS(=O)(=O)c1ccc(OC)c(Nc2nccc(N(C)c3ccc4c(C)n[nH]c4c3)n2)c1", 5.24),
    ("FC(F)(F)c1ccc(-c2nn3ncccc3c2-c2ccnc(Nc3ccc4c(c3)OCCO4)n2)cc1", 8.12),
    ("COc1cc(Nc2nccc(-c3cnn4ncccc34)n2)cc(OC)c1", 29.6),
    ("COc1cc2ncnc(Nc3ccc4c(cnn4Cc4ccccc4)c3)c2cc1OC", 5.68),
    ("NS(=O)(=O)c1ccc(NC=C2C(=O)Nc3ccc4ncsc4c32)cc1", 78.2),
    ("COc1cc(/C=N/Nc2ncnc3c2cnn3C(C)C)ccc1O", 8.02),
    ("CCn1c(-c2nonc2N)nc2ccc(F)cc21", 6.55),
    ("COC(=O)c1cncc(/C=C/c2c(C)cc(O)cc2C)c1", 9.92),
    ("COC(=O)c1ccc2c(c1)C(=Cc1cc(Br)c(O)c(Br)c1)C(=O)N2", 19.5),
    ("C[C@@H](Oc1cc(-n2cnc3ccc(OCC4CCN(C)CC4)cc32)sc1C(N)=O)c1ccccc1C(F)(F)F", 56.7),
    ("NS(=O)(=O)c1cccc(-c2cc3ccncc3cc2OCc2ccccc2)c1", 11),
    ("COc1cccc(-n2nc(C)c3c(N/N=C(\\C)c4ccncc4)ncnc32)c1", 3.56),
    ("O=C1Nc2ccccc2/C1=C/Nc1ccc2[nH]c(=O)[nH]c2c1", 59.4),
    ("O=C(Nc1ccc(Oc2ccc3[nH]c(NC(=O)c4ccco4)nc3c2)cc1)Nc1cc(C(F)(F)F)ccc1F", -0.98),
]
